target: P2Y purinoceptor 12 (Homo sapiens) (UniProt Q9H244); experiment: Synergistic inhibition of P2Y12 in human platelet rich plasma assessed as inhibition of ADP-induced platelet aggregation at 10 uM pretreated for 30 mins followed by ADP addition measured after 5 mins in presence of aspirin by light transmission aggregometric analysis; type: functional
Sequence (Q9H244 whole entry): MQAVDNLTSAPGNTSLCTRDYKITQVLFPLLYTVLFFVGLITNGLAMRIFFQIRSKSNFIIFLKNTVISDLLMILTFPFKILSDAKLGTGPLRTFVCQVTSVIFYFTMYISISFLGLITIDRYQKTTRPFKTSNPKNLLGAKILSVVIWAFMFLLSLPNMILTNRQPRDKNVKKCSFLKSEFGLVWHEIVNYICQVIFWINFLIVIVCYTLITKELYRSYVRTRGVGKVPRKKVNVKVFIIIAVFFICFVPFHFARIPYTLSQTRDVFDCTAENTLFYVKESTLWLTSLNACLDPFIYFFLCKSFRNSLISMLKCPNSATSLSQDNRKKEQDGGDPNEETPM
Calls of active or inactive are those of the source. No cut-off for these calls is given here.
Your response should consist of one outcome taken from active, inactive

{"columns": ["Input smiles", "Classification"],
 "data": [
  ["Nc1c(C(=O)Nc2cccc(Cl)c2)sc2nc3c(cc12)C(=O)CCC3", "active"]
]}

### Prompt Tell me the recorded outcome of this test for Cc1c(Cl)cccc1NC(=O)c1sc2nc3c(cc2c1N)CCCCC3 .
### Response active

### Prompt # outcome recorded in this test, key = Nc1c(C(=O)Nc2ccccc2Cl)sc2nc3c(cc12)C(=O)CCC3
### Response active

### Prompt GET /call?item= Nc1c(C(=O)Nc2ccccc2)sc2nc3c(cc12)CCCCCC3 returns the recorded outcome of this test.
### Response active

### Prompt Name the outcome recorded for Cc1c(Br)cccc1NC(=O)c1sc2nc3c(cc2c1N)CCCCCC3 in the assay.
### Response inactive

### Prompt Please share the test call associated with COc1ccc(NC(=O)c2sc3nc4c(cc3c2N)CCCCCC4)cc1 .
### Response inactive

---

target: P2Y purinoceptor 12 (Homo sapiens); test: Antagonist activity at P2Y12 in human platelet rich plasma assessed as inhibition of collagen-induced platelet aggregation at 10 uM pretreated for 30 mins followed by collagen addition measured after 5 mins by light transmission aggregometric analysis; format: functional
Activity calls are given as the source filed them. No cut-off for these calls is given here.
# output must be one of active, inactive

Use these answered entries as a reference point.
{"columns": ["Input smiles", "Classification"],
 "data": [
  ["COC(=O)[C@H](c1ccccc1Cl)N1CCc2sccc2C1", "inactive"],
  ["Nc1c(C(=O)Nc2cccc(Cl)c2)sc2nc3c(cc12)C(=O)CCC3", "active"],
  ["Cc1c(Cl)cccc1NC(=O)c1sc2nc3c(cc2c1N)CCCCC3", "active"]
]}

### Prompt So what was the verdict on Nc1c(C(=O)Nc2ccccc2Cl)sc2nc3c(cc12)C(=O)CCC3 in this test?
### Response active

### Prompt Please share the test call associated with COc1ccc(NC(=O)c2sc3nc4c(cc3c2N)CCCCCC4)cc1 .
### Response active

### Prompt # fetch the recorded call for Nc1c(C(=O)Nc2ccccc2)sc2nc3c(cc12)CCCCCC3 here
### Response active

### Prompt Kindly provide the recorded test outcome for the following molecule: Cc1c(Br)cccc1NC(=O)c1sc2nc3c(cc2c1N)CCCCCC3
### Response active

The origin of these recorded values is ChEMBL document CHEMBL4138164.
